Attribute: growth
System: SNB-75 CNS
assayComment: NCI-60 one-dose screen, 48 h (100 = growth as untreated, 0 = no growth, -100 = all killed)
details: 10 µM unless noted
About 83,000 compounds went through this panel and 20% of them were active in at least one assay; those are over-represented in the sample as a whole.
endpointLabel: growth (%)

>  <compound>
O=C(C[N+](=O)[O-])c1ccc(Cl)cc1

>  <observedMeasurement>
94.9

$$$$
>  <compound>
COc1ccc(/C=C2\Oc3cc(OCCN4CCCC4)ccc3C2=O)c(OC)c1

>  <observedMeasurement>
93.2

$$$$
>  <compound>
CCCCNc1nnc(-c2cc(-c3cc4ccccc4o3)nn2-c2ccccc2)o1

>  <observedMeasurement>
102

$$$$
>  <compound>
COc1ccc(OC)c(NC(=O)c2cc(S(=O)(=O)N3CCc4ccccc43)ccc2OC)c1

>  <observedMeasurement>
85.1

$$$$
>  <compound>
O=c1oc2cc(OS(=O)(=O)c3ccccc3)c(Cl)cc2c2c1CCCCCC2

>  <observedMeasurement>
83.1

$$$$
>  <compound>
COC1=CC(c2ccc[nH]2)=N/C1=C\c1[nH]c(C)c(C(=O)CCC(=O)Oc2ccc3c(c2)CCC2C3CC[C@]3(C)[C@@H](O)CC[C@@H]23)c1C (stereo partly drawn)

>  <observedMeasurement>
12.1

$$$$
>  <compound>
Cc1c(C2=NNC(c3ccc4c(c3)OCO4)C2)[n+]([O-])c2ccccc2[n+]1[O-] (stereo not drawn)

>  <observedMeasurement>
88.9

$$$$
>  <compound>
COc1ccc(S(=O)(=O)N2CCN(c3cc4c(cc3F)c(=O)c(C(=O)O)cn4C3CC3)CC2)c(OC)c1

>  <observedMeasurement>
85.7

$$$$
>  <compound>
CC(C)(C)OC(=O)N1C/C(=C\c2cccs2)C(=O)/C(=C/c2cccs2)C1

>  <observedMeasurement>
78.9

$$$$
>  <compound>
O=C1NCC(c2cc3ccccc3[nH]c2=O)Nc2ccccc21 (stereo not drawn)

>  <observedMeasurement>
99.6

$$$$
>  <compound>
CCn1cc(C(=O)O)c(=O)c2cc(F)c(N3CCN(S(=O)(=O)c4cccc5ccccc45)CC3)cc21

>  <observedMeasurement>
14.1

$$$$
>  <compound>
Cc1ccc2c(c1)C(=O)C(c1c(-c3[nH]c(=O)c4ccc(C)cc4c3O)c(O)c3ccccc3c1O)=NC2=O

>  <observedMeasurement>
14.4

$$$$
>  <compound>
COC12CC(=O)C(C(C)=O)=C(O)C1(C)c1c(O)c(C)c(O)c(C(C)=O)c1O2 (stereo not drawn)

>  <observedMeasurement>
83.5

$$$$
>  <compound>
CC(=O)OCC1OC(OCC2OC(OC(C)=O)C(OC(C)=O)C(OC(C)=O)C2OC(C)=O)C(OC(C)=O)C(OC(C)=O)C1OC(C)=O (stereo not drawn)

>  <observedMeasurement>
92.8

$$$$
>  <compound>
COc1ccc(Cn2c(SC)nc(=O)n(Cc3ccc(Cl)cc3)c2=O)cc1

>  <observedMeasurement>
80.7

$$$$
>  <compound>
CCC(=O)Nc1ccccc1C#C/C=C\C#Cc1ccccc1SC

>  <observedMeasurement>
60.6

$$$$
>  <compound>
O=C(CNC(=O)c1cccc2ccccc12)Nc1ccccc1Oc1ccccc1

>  <observedMeasurement>
38.9

$$$$
>  <compound>
COC1=CC(c2ccc[nH]2)=N/C1=C\c1[nH]c(C)c(CCCn2cc(CCCCCCCCC[C@@H]3Cc4cc(O)ccc4C4CC[C@]5(C)[C@@H](O)CC[C@H]5C43)nn2)c1C (stereo partly drawn)

>  <observedMeasurement>
88.8

$$$$

* * *

Attribute: growth
Tested on: MCF7 breast
assayComment: NCI-60 one-dose screen, 48 h (100 = growth as untreated, 0 = no growth, -100 = all killed)
details: 10 µM unless noted
About 83,000 compounds went through this panel and 20% of them were active in at least one assay; those are over-represented in the sample as a whole.

>  <compound>
NC(=O)c1ccc2c(c1)OCO2

>  <studySystem>
MCF7 breast

>  <growth, %>
95.6

$$$$
>  <compound>
O=C(Nc1ccc(F)c(Cl)c1)c1n[nH]c(=O)c2ccccc12

>  <studySystem>
MCF7 breast

>  <growth, %>
60.6

$$$$
>  <compound>
O=C(CCCn1c2c(sc3ccccc32)c(=O)n2nnc(-c3ccccc3)c12)NCCc1cnc[nH]1

>  <studySystem>
MCF7 breast

>  <growth, %>
-100

$$$$
>  <compound>
CN=S(=O)(NC(=O)c1ccc(Cl)cc1Cl)c1ccc(Br)s1 (stereo not given)

>  <studySystem>
MCF7 breast

>  <growth, %>
101

$$$$
>  <compound>
COc1cccc(/C=C2\SC(N3CCN(c4ccccn4)CC3)=NC2=O)c1

>  <studySystem>
MCF7 breast

>  <growth, %>
94.8

$$$$
>  <compound>
O=C(/C=C/CN1CCCCC1)Nc1cc2c(Nc3ccc(F)c(Cl)c3F)ncnc2cc1OCCOC(F)F

>  <studySystem>
MCF7 breast

>  <growth, %>
17.6

$$$$
>  <compound>
COc1cccc(NC(=O)c2sc3nc4c(cc3c2N)CCCC4)c1

>  <studySystem>
MCF7 breast

>  <growth, %>
13.2

$$$$
>  <compound>
COc1ccc(C2CC(=O)Nc3c2c(C)nn3-c2nc3ccccc3[nH]2)cc1OC (stereo not given)

>  <studySystem>
MCF7 breast

>  <growth, %>
46.4

$$$$
>  <compound>
CCn1c(=O)c2c(=O)c3c4c(oc3oc2c2ccccc21)C(=O)c1ccccc1C4=O

>  <studySystem>
MCF7 breast

>  <growth, %>
61.9

$$$$
>  <compound>
CN(C)c1ccc(C2CC(c3ccccc3)=NN2/C=C2\SC(=O)NC2=O)cc1 (stereo not given)

>  <studySystem>
MCF7 breast

>  <growth, %>
65.4

$$$$

* * *

Test system: TK-10 renal
assayComment: NCI-60 one-dose screen, 48 h (100 = growth as untreated, 0 = no growth, -100 = all killed)
details: 10 µM unless noted
Compounds without any hit were thinned out: in the full panel of roughly 83,000, 20% have a hit.
Mark each entry Condition met if its growth sits below 90%, and Condition not met for all others.

>  <givenSmiles>
CC(=O)c1cc(C(=O)c2ccc3c(c2)Sc2ccccc2N3)c2cc(C)ccn12

>  <studySystem>
TK-10 renal

>  <cat>
Condition met

$$$$
>  <givenSmiles>
CCCCC[C@@H]1Cc2cc(O)c(C(=O)O)c3c2[C@H](C[C@@]2(CCCO2)O3)O1

>  <studySystem>
TK-10 renal

>  <cat>
Condition not met

$$$$
>  <givenSmiles>
CC(C)N(Cc1ccc(CN(C(=O)CCl)C(C)C)cc1)C(=O)CCl

>  <studySystem>
TK-10 renal

>  <cat>
Condition met

$$$$
>  <givenSmiles>
CCSc1nnc(NC(=O)Cc2ccc(Cl)cc2)s1

>  <studySystem>
TK-10 renal

>  <cat>
Condition not met

$$$$
>  <givenSmiles>
COc1cc(NC(=O)CSc2nc3ccc(C)cc3c(=O)n2-c2ccccc2)cc(OC)c1OC

>  <studySystem>
TK-10 renal

>  <cat>
Condition not met

$$$$
>  <givenSmiles>
O=C(NCCCN1CCN(CCCNC(=O)C2CCCCC2)CC1)C1CCCCC1

>  <studySystem>
TK-10 renal

>  <cat>
Condition not met

$$$$
>  <givenSmiles>
Cc1ccc2nc(SCn3nnc4ccccc4c3=O)[nH]c2c1

>  <studySystem>
TK-10 renal

>  <cat>
Condition not met

$$$$
>  <givenSmiles>
CCNC(=O)CCCCC(=O)c1c(C)[nH]c(/C=C2\N=C(c3ccc[nH]3)C=C2OC)c1C

>  <studySystem>
TK-10 renal

>  <cat>
Condition met

$$$$

* * *

Tested on: NCI-H322M lung
assayComment: NCI-60 one-dose screen, 48 h (100 = growth as untreated, 0 = no growth, -100 = all killed)
details: 10 µM unless noted
The panel holds about 83,000 compounds, 20% with a hit somewhere; the sample as a whole holds those more often.
Note to self: values exactly at 60% are label 1. So growth at or above 60% is label 1, below is label 0.

>  <molecule>
CCN(CC)P(=O)(N(CC)CC)N(CCCSC/C=C(\C)CC/C=C(\C)CCC=C(C)C)CCCN1CCN(C)CC1

>  <cat>
label 1

$$$$
>  <molecule>
COc1ncc(-c2ccc3ncnc(Nc4cccc(Cl)c4)c3c2)cc1N(S(C)(=O)=O)S(C)(=O)=O

>  <cat>
label 0

$$$$
>  <molecule>
O=C(Nc1ccccc1)OCC1OCOC(COC(=O)Nc2ccccc2)C1OC(=O)Nc1ccccc1 (stereo not given)

>  <cat>
label 0

$$$$
>  <molecule>
CC(C)(C)c1ccc(S(=O)(=O)Oc2ccc3c4c(c(=O)oc3c2)CCCCC4)cc1

>  <cat>
label 1

$$$$
>  <molecule>
CC(=O)C1CCC(C)=CC1=O (stereo not given)

>  <cat>
label 1

$$$$
>  <molecule>
CCOC(=O)CC(C#N)(CC(=O)OCC)C(=O)OCC

>  <cat>
label 1

$$$$
>  <molecule>
O=c1cc(C2NCCc3c2[nH]c2ccccc32)c2c(ccc3ccccc32)o1 (stereo not given)

>  <cat>
label 1

$$$$
>  <molecule>
O=C(O)C(=Cc1c2ccccc2cc2ccccc12)C(=O)O

>  <cat>
label 1

$$$$
>  <molecule>
COc1ccc(C(=O)c2cc(OC)c(OC)c(OC)c2)cc1/C=C/C(=O)c1ccc2c(c1)OCO2

>  <cat>
label 0

$$$$
>  <molecule>
CN(C)C/C=C/C(=O)Nc1cc2c(Nc3ccc(F)c(Cl)c3F)ncnc2cc1OCCOC(F)F

>  <cat>
label 0

$$$$
